// reported kon per item
# study target: T1, human GITR-Fc (Enzo Life Sciences, ALX-522-061-C050) (human, UniProt Q9Y5U5 26-162)
# T1 construct: Bought protein; not shown: Fc part of the bought fusion protein; not described
# T1 sequence: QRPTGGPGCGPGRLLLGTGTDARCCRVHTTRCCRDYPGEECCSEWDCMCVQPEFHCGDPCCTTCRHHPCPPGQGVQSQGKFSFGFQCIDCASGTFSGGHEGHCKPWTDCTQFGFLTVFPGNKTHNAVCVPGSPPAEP
# measurement description: ProteOn XPR36; human GITR-Fc amine-coupled on GLC chip, Nanobody injected at 6 concentrations
Numbers only; they are read as M⁻¹ s⁻¹.

>  <binder>
A0231052A08 (VHH, Monovalent Nanobody expressed in E. coli with a triple Flag, HIS6 tag; also called A0231PMP052A08; PA0231PMP052A08.1; not shown: C-terminal triple FLAG and HIS6 tag) VHH: EVQLVESGGGLVQAGGSLRLSCVASGSISSITAMGWHRQAPGAQREGVAVISRSGATMLVDSVKGRFTIVQDNAKNTVYLQMNSLKVEDTAVYGCSAITQGRTYWGQGTLVTVSS

>  <unit abbreviation>
M⁻¹ s⁻¹

>  <test value>
41000

$$$$

Prompt line: Using the record for A0231005A03 (VHH, Monovalent Nanobody expressed in E. coli with a triple Flag, HIS6 tag; also called A0231PMP005A03; PA0231PMP005A03.1; not shown: C-terminal triple FLAG and HIS6 tag) VHH: EVQLVESGGGLVQPGGSLRLSCAASETIFSIDSMAWYRQAPGKQRELVAAITGGGSPNYADSVKGRFTISSDVAKRTVYLQMNSLKPEDTAVYYCNAEGQAGWGTALMDYWGKGTLVTVSS , report its kon.
Response line: 680000

Prompt line: Looking for the measured kon of A0231003D11 (VHH, Monovalent Nanobody expressed in E. coli with a triple Flag, HIS6 tag; also called A0231PMP003D11; PA0231PMP003D11.1; not shown: C-terminal triple FLAG and HIS6 tag) VHH: EVQLVESGGGLVQAGESLRLSCAASGSIFSIDAMGWYRQAPGKQRELVAEISDHTTYGDSVKGRFTISRGNAENTVALQMNSLKPEDTGVYYCNVHHQRGWGTSITVTWGQGTQVTVSS , can you help?
Response line: 630000

Prompt line: Given the binder A0231051E01 (VHH, Monovalent Nanobody expressed in E. coli with a triple Flag, HIS6 tag; also called A0231PMP051E01; PA0231PMP051E01.1; not shown: C-terminal triple FLAG and HIS6 tag) VHH: EVQLVESGGGLVQAGGSLRLSCAASGSIFSFIVMGWYRQAPGEQRALVATVTSGGDTFYVDSVKDRFTISRDNAKNTVYLQMNSLKPEDTAVYFCYFTKVSPYKETTWGQGTLVTVSS , what is its reported kon?
Response line: 190000

// provenance: patent US20220411521A1
